# credit: paper PMC1892040

Assign IC50 to each entry below.
ASSAYED SYSTEM: UniProt:Q962Y6
Assay type: biochemical
Design: The entire TGR ORF plus the SECIS element was subcloned into pET-24a; made in house; host or cells: Escherichia coli BL21(DE3) with pSUABC
MEASUREMENT SETUP: read-out: IC50 S. mansoni TGR, DTNB (TrxR activity)
Field: value (include unit after the number)

{"MOLECULE": "O.O.O.O=C([O-])[C@H]([O-])[C@@H]([O-])C(=O)[O-].O=C([O-])[C@H]([O-])[C@@H]([O-])C(=O)[O-].[K+].[K+].[Sb+3].[Sb+3] [PAT, potassium antimonyl tartrate]", "ASSAYED SYSTEM": "UniProt:Q962Y6", "RESULT": "51 nM"}

--- query ---
Req: Sample OC[C@H]1O[C@H]([S-])[C@H](O)[C@@H](O)[C@@H]1O.[Au+] — what was its IC50?
Resp: 70 nM

----------
ASSAYED SYSTEM: S. mansoni TGR (Schistosoma mansoni)
Sequence (Q962Y6 1-598): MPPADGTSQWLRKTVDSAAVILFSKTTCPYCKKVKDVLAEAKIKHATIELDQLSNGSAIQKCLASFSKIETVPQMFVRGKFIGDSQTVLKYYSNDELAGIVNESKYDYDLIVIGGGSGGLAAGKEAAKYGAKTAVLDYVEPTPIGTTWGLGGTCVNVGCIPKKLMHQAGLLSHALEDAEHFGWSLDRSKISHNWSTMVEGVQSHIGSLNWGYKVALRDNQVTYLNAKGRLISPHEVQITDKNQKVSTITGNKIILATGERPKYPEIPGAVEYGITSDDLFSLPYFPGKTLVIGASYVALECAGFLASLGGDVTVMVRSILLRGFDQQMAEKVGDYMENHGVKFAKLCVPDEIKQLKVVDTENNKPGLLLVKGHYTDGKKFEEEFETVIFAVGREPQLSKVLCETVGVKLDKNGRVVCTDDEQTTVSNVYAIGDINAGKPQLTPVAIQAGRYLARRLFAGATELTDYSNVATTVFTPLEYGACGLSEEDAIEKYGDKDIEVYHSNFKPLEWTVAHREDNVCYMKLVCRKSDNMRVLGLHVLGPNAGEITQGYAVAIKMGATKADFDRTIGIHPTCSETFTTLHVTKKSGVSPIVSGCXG
EXPERIMENTAL DETAILS: biochemical
Format: biochemical
Parameters: The entire TGR ORF plus the SECIS element was subcloned into pET-24a; made in house; host or cells: Escherichia coli BL21(DE3) with pSUABC
MEASUREMENT SETUP: Ki (± standard deviation), TrxR activity of TGR, DTNB as substrate
MEASUREMENT KIND: Ki (µM)
Give bare numbers, in µM.

Req: Sample Cc1c(-c2cnccn2)ssc1=S [OPZ, oltipraz] — what was its Ki?
Resp: 18.1
